B1: Cold shock protein CspB, P41016 (parent)
chain: MQRGKVKWFNNEKGYGFIEVEGGSDVFVHFTAIQGEGFKTLEEGQEVSFEIVQGNRGPQAANVVKL

variants of: B1; conditions: Bacillus caldolyticus; pH 7; 70 °C; Thermal; CD; Sodium cacodylate-HCl 0.1 M; reversible: yes; structure 1C9O; whole UniProt chain shown
Endpoint name: ddG of mutation (higher = less stable) (kJ/mol)
# value in kJ/mol; strip the unit string

INPUT: Quick one: ddG of mutation (higher = less stable) for E46A ?
OUTPUT: 0.92

INPUT: Quick one: ddG of mutation (higher = less stable) for N11S ?
OUTPUT: -1.38

INPUT: Quick one: ddG of mutation (higher = less stable) for Q53E ?
OUTPUT: 0.418

INPUT: Quick one: ddG of mutation (higher = less stable) for Y15F ?
OUTPUT: 0.209

INPUT: Quick one: ddG of mutation (higher = less stable) for Q2L ?
OUTPUT: -2.3

INPUT: Quick one: ddG of mutation (higher = less stable) for S24D ?
OUTPUT: -0.92

INPUT: Quick one: ddG of mutation (higher = less stable) for T31S ?
OUTPUT: -0.711

INPUT: Quick one: ddG of mutation (higher = less stable) for G23Q ?
OUTPUT: 1.21
